Experiment notes: Equilibrium solubility of rosuvastatin calcium in mixed hydrotropic solutions
Format: physicochemical
Measurement parameters: mixed hydrotropic agent solution in distilled water, 37 °C, aqueous with cosolvent or surfactant or cyclodextrin, thermodynamic from solid, SS : M 20 : 20 % w/v, total 40%

- Smiles structure: "CC(C)c1nc(N(C)S(C)(=O)=O)nc(-c2ccc(F)cc2)c1/C=C/[C@@H](O)C[C@@H](O)CC(=O)O"
  solubility at 24 h: "55 mg/mL"

###

Experiment notes: Equilibrium solubility of rosuvastatin calcium in mixed hydrotropic solutions
Type: physicochemical
Measurement parameters: mixed hydrotropic solution in distilled water, 37 °C, aqueous with cosolvent or surfactant or cyclodextrin, thermodynamic from solid, SS : SB 15 : 25 % w/v, total 40%

- Smiles structure: "CC(C)c1nc(N(C)S(C)(=O)=O)nc(-c2ccc(F)cc2)c1/C=C/[C@@H](O)C[C@@H](O)CC(=O)O"
  solubility: "166 mg/mL"

Sourced from paper PMC9722314
